Origin of measurements: patent US11827596B2

target: TRα (Homo sapiens, UniProt P10827); construct: The firefly luciferase reporter under the Gal4 UAS is a separate reporter gene; assay: Thyroid-hormone reporter-gene assay (Gal4-TR hybrid, luciferase), TRα; settings: HEK293-derived reporter cells, 24 hr incubation
Sequence (P10827 163-410 isoform P10827-2 limits assumed): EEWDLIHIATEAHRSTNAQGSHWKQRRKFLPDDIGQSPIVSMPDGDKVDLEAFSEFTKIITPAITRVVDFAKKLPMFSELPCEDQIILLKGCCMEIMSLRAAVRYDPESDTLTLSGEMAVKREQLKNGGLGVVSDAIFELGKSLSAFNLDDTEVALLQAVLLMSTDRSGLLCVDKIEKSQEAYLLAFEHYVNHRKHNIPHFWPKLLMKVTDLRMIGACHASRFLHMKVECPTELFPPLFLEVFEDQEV
pEC50: −log10 of the molar value.
measured.quantity: pEC50

Before answering, review these 4 worked examples.
                               query_smiles        result
0  Cc1cc(OCC(=O)O)cc(C(F)(F)F)c1Cc1ccc(O)c(C(C)C)c1  6.00 to 7.00
1  C=C(C)c1cc(OCC(=O)O)cc(C)c1Cc1ccc(O)c(C(C)C)c1  6.00 to 7.00
2  CCCc1cc(OCC(=O)O)cc(C)c1Cc1ccc(O)c(C(C)C)c1  6.00 to 7.00
3  CC(C)c1cc(Cc2c(Cl)cc(OCC(=O)O)cc2C(F)(F)F)ccc1O  7.00 to 8.00

Request: Name the recorded pEC50 for Cc1cc(OCC(=O)O)cc(Br)c1Cc1ccc(O)c(C(C)C)c1 .
Result: 7.00 to 8.00
